# IC50 against Tyrosine-protein phosphatase non-receptor type 1 (Homo sapiens, UniProt P18031), merged from multiple literature sources
Readout: IC50

{"columns": ["Compound", "Readout value"],
 "data": [
  ["CN(C)c1nc(N)nc2cc(-c3ccccc3C(F)(F)F)c3c(ccn3C)c12", "9470 nM"],
  ["O=C1CN(c2c(O)ccc(-c3cnn(Cc4cncc(F)c4)c3)c2F)S(=O)(=O)N1", "≤ 1000 nM"],
  ["O=C1CN(c2c(O)cc3c(cc(NC4CCCC4)c(=O)n3C3CC3)c2F)S(=O)(=O)N1", "≤ 1000 nM"],
  ["O=C1CN(c2c(O)ccc(-c3cc(CCC4CC4)n[nH]3)c2F)S(=O)(=O)N1", "≤ 1000 nM"],
  ["CCn1cc(-c2ccc(O)c(N3CC(=O)NS3(=O)=O)c2F)c(F)n1", "≤ 1000 nM"],
  ["O=C1CN(c2c(O)ccc(-c3ccc(NS(=O)(=O)C4CC4)cc3)c2F)S(=O)(=O)N1", "≤ 1000 nM"],
  ["N#Cc1c(C(F)(F)P(=O)(O)O)sc2c(OCCCS(N)(=O)=O)cc(-c3nc[nH]n3)cc12", "2.5 nM"],
  ["O=C(NC(c1ccccc1F)C(F)(F)F)c1ccc2sc(C(F)(F)P(=O)(O)O)c(Br)c2c1 (centres unmarked)", "4110 nM"]
]}

----------
Field pIC50: reported value for Tyrosine-protein phosphatase non-receptor type 1 (Homo sapiens, UniProt P18031); entries drawn from several documents.
pIC50: −log10 of the molar value.
Readout: pIC50

{"columns": ["Compound", "Readout", "Comparative sign", "Readout value"],
 "data": [
  ["O=C(Nc1ccccc1F)c1ccc2sc(C(F)(F)P(=O)(O)O)c(Br)c2c1", "pIC50", "=", 5.88],
  ["Cc1c(C(F)(F)P(=O)(O)O)sc2c(OCCCC(F)(F)F)cc(C(N)=O)cc12", "pIC50", "=", 7.00],
  ["O=C(NCc1c[nH]nn1)c1cc(OCCCC(F)(F)F)c2sc(C(F)(F)P(=O)(O)O)c(Br)c2c1", "pIC50", "=", 8.19],
  ["O=C1CN(c2c(O)ccc(C3=CCC(NS(=O)(=O)C4CC4)CC3)c2F)S(=O)(=O)N1 (centres unmarked)", "pIC50", "≥", 6.00],
  ["CNC(=O)c1cc(OCc2ccc(S(C)(=O)=O)cc2)c2sc(C(F)(F)P(=O)(O)O)c(Br)c2c1", "pIC50", "=", 8.43],
  ["O=C1CN(c2c(O)ccc(-c3cc(-c4ccccc4)no3)c2F)S(=O)(=O)N1", "pIC50", "≥", 6.00],
  ["NC(=O)c1cc(OCc2ccc(F)cc2C(F)(F)F)c2sc(C(F)(F)P(=O)(O)O)c(Br)c2c1", "pIC50", "=", 6.80],
  ["O=C1CN(c2c(O)ccc(-c3cn(C4CCCC4)cn3)c2F)S(=O)(=O)N1", "pIC50", "≥", 6.00],
  ["Cn1nc(-c2ccc(O)c(N3CC(=O)NS3(=O)=O)c2F)cc1O", "pIC50", "≥", 6.00],
  ["O=C1CN(c2c(O)ccc(-c3cc(C4CC4CO)n[nH]3)c2F)S(=O)(=O)N1 (centres unmarked)", "pIC50", "≥", 6.00],
  ["NC(=O)c1cc(OCc2cc(C(F)(F)F)cc(C(F)(F)F)c2)c2sc(C(F)(F)P(=O)(O)O)c(Br)c2c1", "pIC50", "=", 6.52],
  ["CC(C)(O)CCOc1ccc2c(Br)c(C(F)(F)P(=O)(O)O)sc2c1", "pIC50", "=", 4.42],
  ["CCOCCCOc1cc(C(N)=O)cc2c(Br)c(C(F)(F)P(=O)(O)O)sc12", "pIC50", "=", 7.03],
  ["N#CCn1cc(-c2ccc(O)c(N3CC(=O)NS3(=O)=O)c2F)cn1", "pIC50", "≥", 6.00],
  ["O=C1CN(c2c(O)ccc(-c3cccc(NS(=O)(=O)C4CC4)c3)c2F)S(=O)(=O)N1", "pIC50", "≥", 6.00],
  ["O=C(Nc1ccc2sc(C(F)(F)P(=O)(O)O)c(Br)c2c1)c1ccc(F)cc1", "pIC50", "=", 5.09],
  ["CCc1csc([C@H](Cc2ccc(NS(=O)(=O)O)cc2)NC(=O)Cc2ccccc2)n1", "pIC50", "=", 4.64],
  ["Cc1noc(C)c1CCNC(=O)c1ccc2sc(C(F)(F)P(=O)(O)O)c(Br)c2c1", "pIC50", "=", 5.31],
  ["CC(C)N1CC=C(c2ccc(O)c(N3CC(=O)NS3(=O)=O)c2F)C1", "pIC50", "≥", 6.00],
  ["O=C1CN(c2c(O)ccc(-c3cc(C4CC4)n(CC4CCCN4)n3)c2F)S(=O)(=O)N1 (centres unmarked)", "pIC50", "≥", 6.00],
  ["CC(C)CCn1cc(-c2cc(F)c(O)c(N3CC(=O)NS3(=O)=O)c2)cn1", "pIC50", "≥", 6.00],
  ["CC(C)(C)CCOc1ccc2cc(O)c(N3CC(=O)NS3(=O)=O)cc2n1", "pIC50", "≥", 6.00],
  ["CNC(=O)c1cc(OCCCCS(C)(=O)=O)c2sc(C(F)(F)P(=O)(O)O)c(Br)c2c1", "pIC50", "=", 7.39],
  ["Cc1ccc(COc2cc(C(N)=O)cc3c(Br)c(C(F)(F)P(=O)(O)O)sc23)cc1C(F)(F)F", "pIC50", "=", 6.71],
  ["CC(C)CCNC1CCN(c2ccc(O)c(N3CC(=O)NS3(=O)=O)c2F)C1 (centres unmarked)", "pIC50", "≥", 6.00],
  ["O=C1CN(c2c(O)ccc(-c3cc(C4CC4)n(CC4CCNC4)n3)c2F)S(=O)(=O)N1 (centres unmarked)", "pIC50", "≥", 6.00],
  ["N=C(N)c1cc(OCCCC(F)(F)F)c2sc(C(F)(F)P(=O)(O)O)c(Br)c2c1", "pIC50", "=", 7.38],
  ["N#C[C@H]1CC[C@@H](n2cnc(-c3ccc(O)c(N4CC(=O)NS4(=O)=O)c3F)c2)CC1", "pIC50", "≥", 6.00],
  ["N#CNC(=N)N1CCC=C(c2ccc(O)c(N3CC(=O)NS3(=O)=O)c2F)C1", "pIC50", "≥", 6.00],
  ["O=C1C=C(c2c(O)ccc(-c3cn(C4CC4)cn3)c2F)S(=O)(=O)N1", "pIC50", "≥", 6.00],
  ["CNC(=O)c1cc(OCC2CC2(F)F)c2sc(C(F)(F)P(=O)(O)O)c(Br)c2c1 (centres unmarked)", "pIC50", "=", 7.60],
  ["O=C1CN(c2c(O)ccc(-c3ccc(OCC4CC4)nc3)c2F)S(=O)(=O)N1", "pIC50", "≥", 6.00]
]}
